Consider the following molecules; for each one, report its Kd.
experiment: SPR (Biocore T100) binding affinity to sLeA; conditions: Example 3, Table 7, mean
The reply should be a number in µM, with the unit left off.

stdin: # input molecule: Clone 4769: Humanized IgG1 antibody, heavy chain variable region HvCh3 (SEQ ID NO: 3), light chain LiCh1 (SEQ ID NO: 5) (antibody, V domains shown) VH: EVQLVESGGGLVQPGGSLRLSCAASGFTFSTNAMSWVRQAPGKGLEWVARLRPKSDNYATYYADSVKGRFTISRDDSKNTLYLQMNSLRAEDTAVYYCVTGTGFWGQGTTLTVSS VL: DIVMTQSPDSLAVSLGERATINCKSSQSLLNSGNQKNYLTWYQQKPGQPPKLLIYWTSTRESGVPDRFSGSGSGTDFTLTISSLQAEDVAVYYCQNDYTSPYTFGQGTKLEIK ; wanted: its Kd
stdout: 81.3

stdin: Name the recorded Kd for Clone 4765: Humanized IgG1 antibody, heavy chain variable region HvCh2 (SEQ ID NO: 2), light chain LiCh1 (SEQ ID NO: 5) (antibody, V domains shown) VH: EVQLVESGGGLVQPGGSLRLSCAASGFTFSTNAMSWVRQAPGKGLEWVARLRPKSDNYATYYADSVKGRFTISRDNSKNTLYLQMNSLRAEDTAVYYCVTGTGFWGQGTTLTVSS VL: DIVMTQSPDSLAVSLGERATINCKSSQSLLNSGNQKNYLTWYQQKPGQPPKLLIYWTSTRESGVPDRFSGSGSGTDFTLTISSLQAEDVAVYYCQNDYTSPYTFGQGTKLEIK .
stdout: 732
